system: 857933-349-R-J2-PDC complex spheroids, viability; assay: Anticancer human tumor 857933-349-R-J2-PDC patient-derived colon adenocarcinoma cell line growth inhibition [GQUAD]; conditions: second compound 3.16 µM; first compound 0.1 µM; active = viability on the fitted dose curve at most 10% of control; inactive = the rest
Output constraint: value belongs to active, inactive

Molecule	Measured Target	Group
O=C(NO)c1cnc(N2CCN(S(=O)(=O)c3ccc4ccccc4c3)CC2)nc1 + Cc1[nH]c2ccc(F)cc2c1-c1nc2c3cccnc3c3ncccc3c2[nH]1	857933-349-R-J2-PDC complex spheroids, viability	inactive
COc1cc(C2c3cc4c(cc3C(OC3OC5COC(C)OC5C(O)C3O)C3COC(=O)C23)OCO4)cc(OC)c1O (stereo unspecified) + Cc1cnc(CNC(=O)c2c(=O)c3ccc(N4CCCN(C)CC4)nc3n3c2sc2ccccc23)cn1	857933-349-R-J2-PDC complex spheroids, viability	active

# outcome recorded in this test, key = CC(C)(O)C1CCC(Nc2ccc3ncc(-c4cccc(C(F)(F)F)c4)n3n2)CC1 (stereo unspecified) + Cc1[nH]c2ccc(F)cc2c1-c1nc2c3cccnc3c3ncccc3c2[nH]1
inactive

Same for C=CC(=O)N1CCN(c2nc(=O)n(-c3c(C)ccnc3C(C)C)c3nc(-c4c(O)cccc4F)c(F)cc23)C(C)C1 (stereo unspecified) + Cc1[nH]c2ccc(F)cc2c1-c1nc2c3cccnc3c3ncccc3c2[nH]1
inactive

Same for Cc1cccc(N(C)C(=O)C2C(O)CCN2c2nc(C)cc(C(F)(F)F)c2C#N)c1 (stereo unspecified) + Cc1[nH]c2ccc(F)cc2c1-c1nc2c3cccnc3c3ncccc3c2[nH]1
inactive

Same for O=c1[nH]cc(F)c(=O)[nH]1 + CN(C)c1ccc(Nc2c3ccc(NC(=O)CCN4CCCC4)cc3nc3cc(NC(=O)CCN4CCCC4)ccc23)cc1
inactive

Same for O=c1[nH]cc(F)c(=O)[nH]1 + Cc1cnc(CNC(=O)c2c(=O)c3ccc(N4CCCN(C)CC4)nc3n3c2sc2ccccc23)cn1
active

---

Catalogue of viability, T/C values
tested on: 857933-349-R-J2-PDC complex spheroids, viability; assay: Anticancer human tumor 857933-349-R-J2-PDC cell line growth inhibition [GQUAD]; details: second compound 3.16 µM; first compound 3.16 µM; stronger effect = lower value;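 also: spheroids exposed to compounds for one week before readout; percent viability relative to vehicle DMSO wells taken as 100%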
Form entry: value (%) — number only.

Some compounds with known viability, T/C results, for comparison:
Compound	viability, T/C [%]
Cc1cccc(N(C)C(=O)C2C(O)CCN2c2nc(C)cc(C(F)(F)F)c2C#N)c1 (stereo not given) + Cc1cnc(CNC(=O)c2c(=O)c3ccc(N4CCCN(C)CC4)nc3n3c2sc2ccccc23)cn1	2.19
CC1COCCN1c1cc(C2(S(C)(=N)=O)CC2)nc(-c2ccnc3[nH]ccc23)n1 (stereo not given) + Cc1cnc(CNC(=O)c2c(=O)c3ccc(N4CCCN(C)CC4)nc3n3c2sc2ccccc23)cn1	1.99
Cc1cccc(N(C)C(=O)C2C(O)CCN2c2nc(C)cc(C(F)(F)F)c2C#N)c1 (stereo not given) + Cc1[nH]c2ccc(F)cc2c1-c1nc2c3cccnc3c3ncccc3c2[nH]1	98.5
CC1COCCN1c1cc(C2(S(C)(=N)=O)CC2)nc(-c2ccnc3[nH]ccc23)n1 (stereo not given) + CN(C)c1ccc(Nc2c3ccc(NC(=O)CCN4CCCC4)cc3nc3cc(NC(=O)CCN4CCCC4)ccc23)cc1	81.6

What viability, T/C value was documented for this compound, C=CC(=O)N1CCN(c2nc(=O)n(-c3c(C)ccnc3C(C)C)c3nc(-c4c(O)cccc4F)c(F)cc23)C(C)C1 (stereo not given) + Cc1[nH]c2ccc(F)cc2c1-c1nc2c3cccnc3c3ncccc3c2[nH]1 ?
104

Same for CC1COCCN1c1cc(C2(S(C)(=N)=O)CC2)nc(-c2ccnc3[nH]ccc23)n1 (stereo not given) + Cc1[nH]c2ccc(F)cc2c1-c1nc2c3cccnc3c3ncccc3c2[nH]1
60.4

Same for CC1COCCN1c1cc(C2(O)CC3CCC(C2)O3)c2cnn(-c3ccn[nH]3)c2n1 (stereo not given) + Cc1[nH]c2ccc(F)cc2c1-c1nc2c3cccnc3c3ncccc3c2[nH]1
48.4
